This section presents compounds with their documented event count (lower = more killing) values.
PROTOCOL SUMMARY: cytotoxicity in LNCaP prostate cancer cells – cell-based, flow cytometry, event count, cytotoxicity control for prostate cell differentiation activator project, dose response (AID 1197)
SETTINGS: LNCaP cell loss, flow cytometry event count, 4 d; at 30 µM (top of the series)
Reply with just the number (in %).

Worked set:
COMPOUND	OBSERVED
Cc1cc(N2CCN(C)CC2)nc2ccc(NC(=O)c3ccc4c(c3)OCO4)cc12	80.5
COc1ccc(N2CCN(CCCNC(=O)CC3Oc4ccc(C)cc4NC3=O)CC2)cc1 (stereo unspecified)	343
CCCc1cc(-c2n[nH]c(C)c2-c2ccc(C(=O)OCC)o2)c(O)cc1O	98.2
O=C(Cn1cc2c(n1)CCCC2)NCCCN1CCN(c2ccccc2F)CC1	333
O=C(CCN1C(=O)COc2ccccc21)NCCCN1CCN(c2ccc(F)cc2)CC1	279
CCn1c(=O)cc(SCC(=O)NCCN2CCN(Cc3ccccc3)CC2)c2ccccc21	306
Cc1cccc(-c2nsc(SCC(=O)Nc3nccs3)n2)c1	296
CCOc1cccc2cc(-c3cn4cc(C)ccc4n3)c(=O)oc12	76.2

Identify measured event count (lower = more killing) associated with CN(CC(O)COc1ccc(OCC(O)CN(C)C2CCCCC2)cc1)C1CCCCC1 (stereo unspecified) 126

Identify measured event count (lower = more killing) associated with "Cn1c(=O)[nH]c(=O)c2c1nc(Br)n2CCCSc1nc2ccccc2o1" 150

Identify measured event count (lower = more killing) associated with "CCN(CC)CCNC(=O)c1cc2c(-c3ccc(Cl)cc3)nn(C)c2s1" 140

Identify measured event count (lower = more killing) associated with "CCn1c(=O)cc(SCC(=O)NCCCN2CCN(c3ccccc3F)CC2)c2ccccc21" 210

Identify measured event count (lower = more killing) associated with Cc1ccccc1-c1nc(CN2CCCC(C(=O)NCCCN3CCOCC3)C2)c(C)o1 (stereo unspecified) 187

Identify measured event count (lower = more killing) associated with C[C@H]1CCC/C=C/C2C[C@H](O)CC2[C@H](O)/C=C/C(=O)O1 (stereo partly specified) 12.8

Identify measured event count (lower = more killing) associated with "COc1ccc(Cc2nc(-c3ccc(-n4cccc4)cc3)no2)cc1OC" 104

Identify measured event count (lower = more killing) associated with "Cc1ccc2c(c1)-c1c(cnn1CC(=O)Nc1ccccc1N1CCN(C)CC1)CO2" 163

Identify measured event count (lower = more killing) associated with "COc1ccc(N2CCN(CCCNC(=O)CCCn3c(=O)[nH]c4ccsc4c3=O)CC2)cc1" 175

Identify measured event count (lower = more killing) associated with "Cc1oc(-c2ccc(Cl)cc2)nc1CN1CCC(C(=O)N2CCN(Cc3ccccc3)CC2)CC1" 91.8

Identify measured event count (lower = more killing) associated with "COc1ccc(CCn2c(=N)c(C(=O)NCc3ccco3)cc3c(=O)n4ccccc4nc32)cc1" 37.8

Identify measured event count (lower = more killing) associated with "CCOc1ccc(NC(=O)COc2nsnc2N2CCCCC2)cc1" 160

Identify measured event count (lower = more killing) associated with "Cn1c(C(=O)NCCCN2CCN(c3cccc(Cl)c3)CC2)cc2c(=O)n(C)c3ccccc3c21" 137

* * *

PROTOCOL SUMMARY: cytotoxicity in LNCaP prostate cancer cells – cell-based, flow cytometry, event count, cytotoxicity control for prostate cell differentiation activator project, dose response (AID 1197)
SETTINGS: LNCaP cell loss, flow cytometry event count, 4 d; at 30 µM (top of the series)
Output schema: class label derived from event count (lower = more killing). Mapping: label 0: < 80%; label 1: ≥ 80% and < 200%; label 2: ≥ 200%

As a guide, the following entries are already answered.
COMPOUND	CLASS ASSIGNMENT
COc1ccc(N2CCN(CCCNC(=O)c3cc4sccc4n3C)CC2)cc1	label 2
CC1CCCCN1CCNC(=O)c1cc2c(-c3ccccc3F)nn(C)c2s1 (centres undefined)	label 1
COc1ccc(-c2ccc(-c3noc(-c4ccccc4)n3)c(OC)n2)cc1	label 1
CCCOc1ccccc1C1CC(=O)Nc2cc3c(cc21)OCO3 (centres undefined)	label 0

Class label required: CC(C)(C)c1ccc(C(O)CCCN2CCC(C(O)(c3ccccc3)c3ccccc3)CC2)cc1 (centres undefined) label 0

Class label required: "Cc1nc2ncnn2c(C)c1CCC(=O)NCCCN1CCN(c2cccc(Cl)c2)CC1" label 2

Class label required: "CCN1CCN(CCNC(=O)C2CCN(Cc3nc(-c4ccc(Cl)cc4)oc3C)CC2)CC1" label 1

Class label required: "O=C(NCCCN1CCN(c2cccc(Cl)c2)CC1)c1cccc(N2CCCC2=O)c1" label 2

Class label required: "Nc1ccc(-n2ccnc2)cc1" label 2

Class label required: CCN1CCN(C(c2cccs2)C(C)NS(=O)(=O)c2ccc(Br)cc2)CC1 (centres undefined) label 2

* * *

PROTOCOL SUMMARY: cytotoxicity in LNCaP prostate cancer cells – cell-based, flow cytometry, event count, cytotoxicity control for prostate cell differentiation activator project, dose response (AID 1197)
SETTINGS: LNCaP cell loss, flow cytometry event count, 4 d; at 30 µM (top of the series)
QUANTITY MEASURED: event count (lower = more killing) (%)
Reply with just the number (in %).

Worked set:
COMPOUND	event count (lower = more killing), %
CCOC(=O)c1ccccc1NC(=O)Cn1c(-c2nonc2N)nc2ccccc21	116
CCN(CC)CCCNC(=O)c1cc2c(-c3ccc(Cl)cc3)nn(C)c2s1	22.2

Identify measured event count (lower = more killing) associated with "CCN(CC)CCNC(=O)c1ccc(N2CCCCC2)c(NS(=O)(=O)c2ccc(C)cc2)c1" 70.8

Identify measured event count (lower = more killing) associated with CCOC(=O)c1c(C)n(C)c2ccc(OCC(O)CNC(CC)CO)cc12 (stereo unspecified) 115

Identify measured event count (lower = more killing) associated with "Cc1ccc(CNc2nc3ccccc3n3nnnc23)cc1" 128

Identify measured event count (lower = more killing) associated with CCN1CCCC1CNC(=O)c1cc2c(-c3ccc(Cl)cc3)nn(C)c2s1 (stereo unspecified) 27.8

Identify measured event count (lower = more killing) associated with "COc1ccccc1NC(=O)c1nc[nH]c1C(=O)Nc1ccccc1OC" 87.2

Identify measured event count (lower = more killing) associated with "Cc1ccccc1-c1nc(CN2CCC(C(=O)NCCCN3CCCC3)CC2)c(C)o1" 76.5

Identify measured event count (lower = more killing) associated with "O=S1(=O)C=C(Sc2nc3ccccc3s2)c2ccccc21" 150

Identify measured event count (lower = more killing) associated with "Cc1ccccc1-c1nc(CN2CCC(C(=O)NCCCN3CCOCC3)CC2)c(C)o1" 109

Identify measured event count (lower = more killing) associated with CN(CCNC(=O)C1CC(=O)N(c2ccc(F)c(Cl)c2)C1)Cc1ccccc1 (stereo unspecified) 343

* * *

PROTOCOL SUMMARY: cytotoxicity in LNCaP prostate cancer cells – cell-based, flow cytometry, event count, cytotoxicity control for prostate cell differentiation activator project, dose response (AID 1197)
SETTINGS: LNCaP cell loss, flow cytometry event count, 4 d; at 30 µM (top of the series)
Output schema: class label derived from event count (lower = more killing). Mapping: lower band = under 70%, central band = from 70% up to 200%, upper band = 200% and over

As a guide, the following entries are already answered.
COMPOUND	CLASS ASSIGNMENT
Cc1ccccc1-c1nc(CN2CCC(C(=O)NCCCN3CC(C)CC(C)C3)CC2)c(C)o1 (centres undefined)	central band
COc1cc2nc(N3CCN(C(=O)C4COc5ccccc5O4)CC3)nc(N)c2cc1OC (centres undefined)	central band
Cc1ccc(Cl)cc1N1CCN(C(=O)c2cc3c(=O)n(C)c4ccccc4c3n2C)CC1	lower band

Class label required: "O=C(c1ccccc1)c1ccc(N2CCNCC2)cc1" upper band

Class label required: "CCN1CCN(c2cc(C)c3cc(NC(=O)c4ccc(Br)o4)ccc3n2)CC1" lower band

Class label required: "Cc1ccc(Nc2cc(=O)n(C3CCCCC3)c(=O)[nH]2)cc1C" lower band

Class label required: CC1CCCCN1CCNC(=O)c1ccc2c(=O)n(CCc3ccccc3)c(=O)[nH]c2c1 (centres undefined) central band

Class label required: "Cc1ccccc1-c1nc(CN2CCC(C(=O)NCc3cccnc3)CC2)c(C)o1" upper band

Class label required: "O=c1cc(-c2ccccc2)[nH]c2ccccc12" central band

Class label required: "CN1CCN(c2cc3c(c4c2[nH]c2ccccc24)C(=O)CC(C)(C)C3)CC1" lower band

* * *

PROTOCOL SUMMARY: cytotoxicity in LNCaP prostate cancer cells – cell-based, flow cytometry, event count, cytotoxicity control for prostate cell differentiation activator project, dose response (AID 1197)
SETTINGS: LNCaP cell loss, flow cytometry event count, 4 d; at 30 µM (top of the series)
QUANTITY MEASURED: event count (lower = more killing) (%)
Reply with just the number (in %).

MOLECULE	event count (lower = more killing) (%)
Cc1ccc(C)c(N2CCN(CCCNC(=O)Cn3cc4c(n3)CCCCC4)CC2)c1	71.8
CCN1CCN(c2ncc(C(=O)Nc3cc(Cl)c(OC)cc3OC)c3ccccc23)CC1	208
CCCS(=O)(=O)N1CCCC(C(=O)NCCCN2CCN(c3ccc(F)cc3)CC2)C1 (centres undefined)	238

Consider the record given below.
Identify measured event count (lower = more killing) associated with CCn1c(=N)n(CC(O)COc2cccc(C)c2)c2ccccc21 (centres undefined) 275
